Entry source: ChEMBL document CHEMBL1150303

Entries and their MIC
Test system: Escherichia coli
Assay: Antibacterial activity against Escherichia coli isolate by conventional agar dilution method
Format: functional
Use µg/mL as the unit, but write only the number.

Worked examples, 4 compounds total:
CCC(=O)NS(=O)(=O)c1ccccc1	256
CS(=O)(=O)NC(=O)c1ccccc1	256
O=C(NS(=O)(=O)c1ccccc1)c1ccccc1	256
Cc1cc(NS(=O)(=O)c2ccc(N)cc2)no1	2

Query: Request: MIC, test system Escherichia coli, entry CCC(=O)NS(=O)(=O)c1ccc(C)cc1
Response: 128

Query: Request: MIC, test system Escherichia coli, entry Cc1ccc(S(=O)(=O)NC(=O)c2ccccc2)cc1
Response: 64

====

Entries and their MIC
Tested on: Escherichia coli
Assay: Antibacterial activity against Escherichia coli isolate by conventional agar dilution method
Format: functional

CCCCC(=O)NS(=O)(=O)c1ccc(C)cc1	> 1000 µg/mL
CC(=O)NS(=O)(=O)c1ccccc1	> 1000 µg/mL

Okay, now this compound:
Query: Request: MIC, test system Escherichia coli, entry CCCCC(=O)NS(=O)(=O)c1ccccc1
Response: > 1000 µg/mL
